These data points were gathered from patent US7612018B2.

test system: Plutella xylostella; assay: Activity against Plutella xylostella (Example B7); format: in vivo; details: 72 h, young cabbage plants, spray 400 ppm, 3rd instar caterpillars, 3 days, read-out: percentage reduction in the population and in the feeding damage (% activity)
Recorded inhibition at 400 ppm by entry
metric: inhibition at 400 ppm

1) Cc1cc(C(F)(C(F)(F)F)C(F)(F)F)ccc1NC(=O)c1cccc(Cl)c1C(=O)NC(C)(C)CS(C)(=N)=O (stereo not drawn)    > 80%
2) Cc1cc(C(F)(C(F)(F)F)C(F)(F)F)ccc1NC(=O)c1cccc(Cl)c1C(=O)NC(C)(C)C/S(C)=N/C(=O)OC(C)(C)C (stereo not drawn)    > 80%
3) Cc1cc(C(F)(C(F)(F)F)C(F)(F)F)ccc1NC(=O)c1cccc(I)c1C(=O)NC(C)(C)CS(C)(=N)=O (stereo not drawn)    > 80%

* * *

tested on: Plutella xylostella; assay: Activity against Plutella xylostella (Example B7); assay type: in vivo; settings: 72 h, young cabbage plants, spray 400 ppm, 3rd instar caterpillars, 3 days, read-out: percentage reduction in the population and in the feeding damage (% activity)
metric: inhibition at 400 ppm

1. Cc1cc(C(F)(C(F)(F)F)C(F)(F)F)ccc1NC(=O)c1cccc(Cl)c1C(=O)NC(C)(C)CS(C)(=O)=NC(=O)OC(C)(C)C (stereo not drawn)    > 80%
2. Cc1cc(C(F)(C(F)(F)F)C(F)(F)F)ccc1NC(=O)c1cccc(I)c1C(=O)NC(C)(C)C/S(C)=N/C(=O)OC(C)(C)C (stereo not drawn)    > 80%
3. Cc1cc(C(F)(C(F)(F)F)C(F)(F)F)ccc1NC(=O)c1cccc(I)c1C(=O)NC(C)(C)CS(C)(=O)=NC(=O)OC(C)(C)C (stereo not drawn)    > 80%
